FYI, the data here is from ChEMBL document CHEMBL4699593.

assay-text: Terminal half life in Balb/C mouse at 5 mg/kg, po by LC-MS/MS analysis
Type: ADME, organism-based
experimental-conditions: in vivo, read-out: beta t1/2 (converted)
readout-name: half-life (h)
// note: answer is a bare numeric in h

Sample "CN1CCN(c2nccc3nc(-c4ccc(F)c(F)c4)[nH]c23)CC1" ; half-life observed: 5.4

###

assay-text: Terminal half life in Balb/C mouse at 2 mg/kg, iv by LC-MS/MS analysis
Format: ADME, organism-based
experimental-conditions: in vivo, read-out: beta t1/2 (converted)
Output 1 for half-life not less than 8 h; output 0 otherwise.

Completed entries (count: 5):
compound-structure-string	group
CN1CCN(CC2CCN(c3cncc4[nH]c(-c5cc(F)cc(F)c5)nc34)CC2)CC1	0
Fc1ccc(-c2nc3c(N4CCC(CN5CCOCC5)CC4)nccc3[nH]2)cc1F	1
Cn1ccnc1N1CCN(CC2CCN(c3nccc4[nH]c(-c5cc(F)cc(F)c5)nc34)CC2)CC1	1
CN1CCN(C2CCN(c3nccc4[nH]c(-c5cc(F)cc(F)c5)nc34)CC2)CC1	1
CN1CCN(c2nccc3nc(-c4ccc(F)c(F)c4)[nH]c23)CC1	0

Now look at this one.
stdin: Record "CN1CCN(CC2CCN(c3nccc4[nH]c(-c5cc(F)cc(F)c5)nc34)CC2)CC1" ; criterion: half-life no lower than 8 h. Met?
stdout: 1

###

Entries and their IC50
system-name: Voltage-gated inwardly rectifying potassium channel KCNH2 (Homo sapiens)
Sequence (Q12809 whole entry): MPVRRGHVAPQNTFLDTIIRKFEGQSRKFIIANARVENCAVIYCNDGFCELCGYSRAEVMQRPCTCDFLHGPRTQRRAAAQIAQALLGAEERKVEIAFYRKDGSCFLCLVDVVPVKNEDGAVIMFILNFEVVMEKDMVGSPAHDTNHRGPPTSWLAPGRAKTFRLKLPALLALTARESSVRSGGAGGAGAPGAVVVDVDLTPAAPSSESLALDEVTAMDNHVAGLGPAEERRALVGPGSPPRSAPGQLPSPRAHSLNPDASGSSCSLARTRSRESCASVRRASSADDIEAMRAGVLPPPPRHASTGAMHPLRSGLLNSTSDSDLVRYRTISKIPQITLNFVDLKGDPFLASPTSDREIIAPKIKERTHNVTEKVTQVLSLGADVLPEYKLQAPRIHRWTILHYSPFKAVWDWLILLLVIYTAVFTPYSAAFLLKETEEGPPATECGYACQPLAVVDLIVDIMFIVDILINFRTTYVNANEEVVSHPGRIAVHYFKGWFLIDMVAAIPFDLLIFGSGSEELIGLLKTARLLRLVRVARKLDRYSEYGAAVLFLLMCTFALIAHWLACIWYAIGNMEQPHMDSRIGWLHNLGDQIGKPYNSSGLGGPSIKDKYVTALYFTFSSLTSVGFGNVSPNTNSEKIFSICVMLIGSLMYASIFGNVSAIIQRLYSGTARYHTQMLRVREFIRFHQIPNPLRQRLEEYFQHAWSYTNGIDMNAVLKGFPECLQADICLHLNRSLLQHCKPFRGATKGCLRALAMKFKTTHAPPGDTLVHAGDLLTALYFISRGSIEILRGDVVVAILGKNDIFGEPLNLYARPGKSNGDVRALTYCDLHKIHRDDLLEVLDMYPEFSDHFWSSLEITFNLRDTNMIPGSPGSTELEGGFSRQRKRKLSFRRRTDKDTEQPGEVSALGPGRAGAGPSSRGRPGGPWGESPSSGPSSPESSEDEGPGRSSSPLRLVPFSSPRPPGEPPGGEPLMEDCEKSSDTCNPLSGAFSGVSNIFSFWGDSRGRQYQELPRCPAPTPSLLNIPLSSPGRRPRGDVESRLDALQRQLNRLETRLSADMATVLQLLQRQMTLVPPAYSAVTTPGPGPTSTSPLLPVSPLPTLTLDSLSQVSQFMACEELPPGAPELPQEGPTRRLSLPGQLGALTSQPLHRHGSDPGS
assay-text: Inhibition of human ERG by patch clamp method

Take a look at these entries with their results.
compound-structure-string	IC50
CN1CCOC2(CCN(c3nccc4[nH]c(-c5cc(F)cc(F)c5)cc34)CC2)C1	≤ 3 µM
Cc1cc2[nH]c(-c3cc(F)cc(F)c3)nc2c(N2CCC(CN3CCN(C)CC3)CC2)n1	> 30 µM
CN1CCN(C2CCN(c3nccc4[nH]c(-c5cc(F)cc(F)c5)cc34)CC2)CC1	4 µM
CN1CCN(CC2CCN(c3nccc4[nH]c(-c5cc(F)cc(F)c5)cc34)CC2)CC1	5 µM
CN1CCN(C2CCN(c3nccc4[nH]c(-c5cc(F)cc(F)c5)nc34)CC2)CC1	> 30 µM
Fc1ccc(-c2nc3c(N4CCNCC4)nccc3[nH]2)cc1F	3.4 µM
Fc1ccc(-c2nc3c(N4CCC(CN5CCOCC5)CC4)nccc3[nH]2)cc1F	≤ 3 µM

Consider the additional compound presented here.
IC50 on Voltage-gated inwardly rectifying potassium channel KCNH2 (Homo sapiens) for "Fc1cc(F)cc(-c2nc3c(N4CCC(CN5CCN(CC(F)(F)F)CC5)CC4)nccc3[nH]2)c1" is ≤ 3 µM

###

assay-text: Tmax in Plasmodium falciparum 3D70087/N9 infected NSG mouse at 100 mg/kg, po by LC-MS/MS analysis
Format: ADME, organism-based
experimental-conditions: in vivo
readout-name: Tmax (h)
// note: answer is a bare numeric in h

Sample "CN1CCN(CC2CCN(c3nccc4[nH]c(-c5cc(F)cc(F)c5)nc34)CC2)CC1" ; Tmax observed: 1

###

System: Plasmodium falciparum
assay-text: Antimalarial activity against asexual schizont stage of Plasmodium falciparum NF54 measured after 24 hrs by [3H]hypoxanthine incorporation assay
Type: functional, organism-based
readout-name: pIC50
Just so you know, pIC50 here is -log10 of the concentration in molar units; reply with that number alone.

Sample "CN1CCN(CC2CCN(c3nccc4[nH]c(-c5cc(F)cc(F)c5)nc34)CC2)CC1" ; pIC50 observed: 7.22

###

assay-text: AUC (0 to t) in Balb/C mouse at 20 mg/kg, po by LC-MS/MS analysis
Type: ADME, organism-based
Parameters: dose 20 mg/kg
experimental-conditions: in vivo
# strict inequality: AUCt < 20 µM·h yields Satisfied, everything else yields Not satisfied

Completed entries (count: 2):
compound-structure-string	group
Cn1ccnc1N1CCN(CC2CCN(c3nccc4[nH]c(-c5cc(F)cc(F)c5)nc34)CC2)CC1	Satisfied
CN1CCC(N2CCN(c3nccc4[nH]c(-c5ccc(F)c(F)c5)nc34)CC2)CC1	Satisfied

stdin: Please indicate whether the reported AUCt of "CN1CCN(C2CCN(c3nccc4[nH]c(-c5cc(F)cc(F)c5)nc34)CC2)CC1" is strictly below 20 µM·h.
stdout: Satisfied

stdin: Please indicate whether the reported AUCt of "Fc1ccc(-c2nc3c(N4CCC(CN5CCOCC5)CC4)nccc3[nH]2)cc1F" is strictly below 20 µM·h.
stdout: Not satisfied

###

assay-text: Cmax in Plasmodium falciparum 3D70087/N9 infected NSG mouse at 50 mg/kg, po by LC-MS/MS analysis
Assay type: ADME, organism-based
Parameters: route oral, dose 50 mg/kg
experimental-conditions: in vivo
readout-name: Cmax (nM)
// note: answer is a bare numeric in nM

Sample "CN1CCN(CC2CCN(c3nccc4[nH]c(-c5cc(F)cc(F)c5)nc34)CC2)CC1" ; Cmax observed: 2840

###

assay-text: Lipophilicity, log D of compound at pH 6
Assay type: physicochemical
experimental-conditions: buffer
readout-name: logD
Please state the value as a number alone, without comment.

Sample "CN1CCN(CC2CCN(c3nccc4[nH]c(-c5cc(F)cc(F)c5)nc34)CC2)CC1" ; logD observed: 0.4

###

assay-text: Tmax in Plasmodium falciparum 3D70087/N9 infected NSG mouse at 15 mg/kg, po by LC-MS/MS analysis
Format: ADME, organism-based
experimental-conditions: in vivo
readout-name: Tmax (h)
// note: answer is a bare numeric in h

Sample "CN1CCN(CC2CCN(c3nccc4[nH]c(-c5cc(F)cc(F)c5)nc34)CC2)CC1" ; Tmax observed: 6

###

System: CHO
assay-text: Cytotoxicity against CHO cells assessed as reduction in cell viability by MTT assay
Type: cell-based, Cricetulus griseus
experimental-conditions: chinese hamster
# strict inequality: CC50 < 20 µM yields met, everything else yields not met

Completed entries (count: 3):
compound	system-name	group
CC(C)(C)N1CCN(CC2CCN(c3nccc4[nH]c(-c5cc(F)cc(F)c5)nc34)CC2)CC1	CHO	met
C[C@@H]1CN(c2nccc3[nH]c(-c4ccc(F)c(F)c4)nc23)C[C@H](C)N1	CHO	met
Fc1ccc(-c2nc3c(N4CCN5CCCC5C4)nccc3[nH]2)cc1F (stereo not given)	CHO	not met

stdin: Please indicate whether the reported CC50 of "CN1CCN(C[C@H]2CCCN(c3nccc4[nH]c(-c5cc(F)cc(F)c5)nc34)C2)CC1" is strictly below 20 µM.
stdout: met

stdin: Please indicate whether the reported CC50 of "Fc1cc(F)cc(-c2nc3c(N4CCC(CN5CCC(F)(F)CC5)CC4)nccc3[nH]2)c1" is strictly below 20 µM.
stdout: not met

stdin: Please indicate whether the reported CC50 of "Fc1cc(F)cc(-c2nc3c(N4CCC(CN5CCOCC5)CC4)nccc3[nH]2)c1" is strictly below 20 µM.
stdout: not met

stdin: Please indicate whether the reported CC50 of "CN1CCN(C2CCN(c3nccc4[nH]c(-c5cccc(S(C)(=O)=O)c5)nc34)CC2)CC1" is strictly below 20 µM.
stdout: not met

stdin: Please indicate whether the reported CC50 of "Cc1cc2[nH]c(-c3cc(F)cc(F)c3)nc2c(N2CCC(CN3CCN(C)CC3)CC2)n1" is strictly below 20 µM.
stdout: met

stdin: Please indicate whether the reported CC50 of "CN1CCCN(c2nccc3[nH]c(-c4ccc(F)c(F)c4)nc23)CC1" is strictly below 20 µM.
stdout: met

###

assay-text: Oral bioavailability in Balb/C mouse at 20 mg/kg by LC-MS/MS analysis
Assay type: ADME, organism-based
experimental-conditions: in vivo
readout-name: bioavailability

compound-structure-string	bioavailability
CN1CCN(CC2CCN(c3nccc4[nH]c(-c5cc(F)cc(F)c5)nc34)CC2)CC1	83%
Fc1ccc(-c2nc3c(N4CCC(CN5CCOCC5)CC4)nccc3[nH]2)cc1F	83%
CN1CCC(N2CCN(c3nccc4[nH]c(-c5ccc(F)c(F)c5)nc34)CC2)CC1	11%
Cn1ccnc1N1CCN(CC2CCN(c3nccc4[nH]c(-c5cc(F)cc(F)c5)nc34)CC2)CC1	24%

Sample "CN1CCN(C2CCN(c3nccc4[nH]c(-c5cc(F)cc(F)c5)nc34)CC2)CC1" ; bioavailability observed: 61%

###

assay-text: AUC in Plasmodium falciparum infected NSG mouse at 62 mg/kg, po by LC-MS/MS analysis
Assay type: ADME, organism-based
Design: dose 62 mg/kg
experimental-conditions: in vivo
readout-name: AUC (µM·h)
// note: answer is a bare numeric in µM·h

Sample "CN1CCN(CC2CCN(c3nccc4[nH]c(-c5cc(F)cc(F)c5)nc34)CC2)CC1" ; AUC observed: 58.3

###

Test system: Plasmodium falciparum
assay-text: Antiplasmodial activity against early stage (I to III) Plasmodium falciparum NF54 gametocytes incubated for 48 hrs under hypoxia condition by luciferase reporter gene assay
Format: functional, organism-based
experimental-conditions: NF54, 48 h
readout-name: pIC50
Just so you know, pIC50 here is -log10 of the concentration in molar units; reply with that number alone.

Take a look at these entries with their results.
compound-structure-string	pIC50
NC1CCN(c2nccc3[nH]c(-c4cccc(OC(F)(F)F)c4)nc23)CC1	6.11
Fc1ccc(-c2nc3c(N4CCC(CN5CCOCC5)CC4)nccc3[nH]2)cc1F	5.89

Consider the additional molecule presented here.
Sample "Fc1ccc(-c2nc3c(N4CCCN(CC5CC5)CC4)nccc3[nH]2)cc1F" ; pIC50 observed: 5.28
